System: ATP;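 also: ATP exposure 15 min at 22 °C before imaging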
Assay: switch fluorescence ratio, 500 uM ATP over buffer (Cy3 cluster intensity, sum of 5 cycles each) (fold (ratio)); higher = stronger signal-on switching upon ATP binding; sequences stand for … in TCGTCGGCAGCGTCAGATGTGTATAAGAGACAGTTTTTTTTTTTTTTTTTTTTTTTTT…TC
Conditions: aptamer strand: ATP DNA aptamer (quencher-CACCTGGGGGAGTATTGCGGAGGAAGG + anchor), 100 nM annealed; ATP concentration: 500 uM
Use 1 (yes) when the recorded switch fluorescence ratio is no lower than 1; use 0 (no) when it is lower.

>>> df
    residue_sequence  system  qualitative_label
 0        AAGCCCGACG     ATP            1 (yes)
 1        CGCAGGGTTC     ATP            1 (yes)
 2        ATATCCGTCA     ATP            1 (yes)
 3        AATTTAATGG     ATP            1 (yes)
 4        TTCCTACAAG     ATP            1 (yes)
 5        TGGGAGGTAC     ATP            1 (yes)
 6        TGAGCCTTAG     ATP            1 (yes)
 7        ACGGGAGGGG     ATP            1 (yes)
 8        CTGCTCTGTG     ATP             0 (no)
 9        TCGTTACGGG     ATP            1 (yes)
10        ATATGGGAGG     ATP             0 (no)
11        TTTGTGGCTA     ATP            1 (yes)
12        TTTTCGTTTT     ATP            1 (yes)
13        GTTGGTTTGG     ATP            1 (yes)
14        TAAGGGTTGC     ATP            1 (yes)
15        GGGGTCATGC     ATP             0 (no)
16        CAAATTTGCT     ATP             0 (no)
17        TTGACGGTGA     ATP            1 (yes)
18        GTTTTCGACT     ATP            1 (yes)
19        CGATGCTCCG     ATP             0 (no)
20        TGGGCCGGTT     ATP            1 (yes)
21        ACGAAGGATA     ATP            1 (yes)
22        GAGTGGTTGC     ATP            1 (yes)
23        CCGATCGTGG     ATP            1 (yes)
24        TAGCATAACC     ATP            1 (yes)
25        TGGGGAAAAA     ATP            1 (yes)
26        TAATAGAGGG     ATP            1 (yes)
27        GGGGCAGGTG     ATP            1 (yes)
28        CGTTAATAGC     ATP            1 (yes)
29        CGAAATTTGG     ATP            1 (yes)
30        ACTTTCACGG     ATP            1 (yes)
